- assay-overview: qHTS RealTime-Glo MT Cell Viability Assay in HEK293 cells - 8 hour (AID 1224887); note: nearly all actives have a fitted effect of over 50% in size
- assay-setup: RealTime-Glo luminescence; series mostly up to 76.8 µM
Results filed as inconclusive are left out. Active and inactive are the calls of the source. Calls come from the whole dose curve; as a rule, active = well fitted cell-killing curve with a large enough effect in the repeat runs; inconclusive = weak or mixed curves, or effect the other way; inactive = flat fitted curve, though single readings scatter.
Pick one: active, inactive

Problem: Outcome? CCCCC(CC)COC(=O)COc1ccc(Cl)cc1C (centres undefined)
Solution: inactive

Problem: Outcome? "CCCOCCOCCO"
Solution: inactive

Problem: Outcome? "O=Cc1c(Cl)cccc1Cl"
Solution: inactive

Problem: Outcome? CCC(C)(C)C1CCC(O)CC1 (centres undefined)
Solution: inactive

Problem: Outcome? "CCCCN(CCCC)C(=S)SSC(=S)N(CCCC)CCCC"
Solution: active

Problem: Outcome? "CC(C)(O)c1ccccc1CC[C@@H](SCC1(CC(=O)O)CC1)c1cccc(/C=C/c2ccc3ccc(Cl)cc3n2)c1"
Solution: inactive

Problem: Outcome? "CCCCCCCCCOC(C)=O"
Solution: inactive

Problem: Outcome? "O=C(O)c1ccc(CO)o1"
Solution: inactive

Problem: Outcome? "CC(C)CCCCCCOC(=O)CCCCC(=O)OCCCCCCC(C)C"
Solution: inactive

Problem: Outcome? "C=CCOC(=O)/C=C\C(=O)OCC=C"
Solution: inactive
